- Experiment description: chemical genetic growth profiling, strain panel (AID 1159580);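 further: tested at 20 µM; growth read once vehicle control cultures reached saturation at 30 °C; 1 = growth at the plate median or of vehicle wells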
- Run conditions: S. cerevisiae deletion strains, growth OD, locus YLL041C, strain sdh2
About 2,000 (36%) of roughly 5,500 compounds were called active. About 18% were inconclusive and are not listed. No stated cut-off is given here; in the data, active means normalized growth mostly below about 0.91 (no sharp cut-off); inconclusive means no clear call, values can overlap the other calls; inactive means mostly above about 0.92. The list shows a part of the results.
Select the matching outcome among 1 (yes) for active, 0 (no) for inactive

State the result this test recorded for Clc1ccc(CSC(Cn2ccnc2)c2ccc(Cl)cc2Cl)cc1 (centres undefined) .
1 (yes)

Name the outcome recorded for O=C(O)C1CCCNC1 (centres undefined) in the assay.
0 (no)

Which outcome was assigned to CC(=O)O[C@@H]1CC2C(C)(C)[C@@H](O)CC[C@]2(C)C2CC[C@@]3(C)[C@H](c4ccoc4)OC(=O)[C@H]4O[C@]43[C@@]21C (some centres undefined) in this test?
0 (no)

Name the outcome recorded for CC(=O)O[C@@H]1CC2C(C)(C)[C@H](O)CC[C@]2(C)C2CC[C@@]3(C)[C@H](c4ccoc4)OC(=O)C4OC43[C@@]21C (some centres undefined) in the assay.
0 (no)

* * *

- Experiment description: chemical genetic growth profiling, strain panel (AID 1159580);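 further: tested at 20 µM; growth read once vehicle control cultures reached saturation at 30 °C; 1 = growth at the plate median or of vehicle wells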
- Run conditions: S. cerevisiae deletion strains, growth OD, locus YHR079C, strain IRE1, stronger effect = lower value
Among all 5,500 compounds or so, about 2,000 (36%) were called active. Roughly 18% stayed inconclusive and do not appear here. The list shows a part of the results.
API: label(entry) gives Condition met if the entry's normalized growth is strictly smaller than 1; on equality or larger values it gives Condition not met.

Solved entries:
Strictly below 1: is that where normalized growth of CC(Oc1ccc(Cl)cc1Cl)C(=O)O (configuration not stated) sits?
Condition met

Could you please tell me whether normalized growth recorded for `O=S(=O)(NCc1ccc(C(F)(F)F)cc1)c1cccc(C(F)(F)F)c1` is less than 1?
Condition met

A record lists `Clc1ccccc1-c1csc(-c2ccncc2)n1` . Is its normalized growth below 1?
Condition met

Does this compound meet the criterion normalized growth < 1? `O=S(=O)(NCc1ccc(C(F)(F)F)cc1)c1cc(Br)c(Br)s1`
Condition met

Next:
Identify whether the compound `CC(=O)OC/C=C(\C)CC/C=C(\C)CC/C=C(\C)CC/C=C(\C)CC/C=C(\C)CC/C=C(\C)CC/C=C(\C)CC/C=C(\C)CCC=C(C)C` records normalized growth below 1.
Condition not met

Strictly below 1 in normalized growth? `Brc1ccc(-c2csc(-c3cccnc3)n2)cc1`
Condition met

normalized growth under 1? Item: Cc1cccc(C)c1NC(=O)C1CCCCN1C (configuration not stated)
Condition not met

Problem: For the compound `O=S(=O)(Nc1cc(Cl)c(Cl)cc1Cl)c1cc(C(F)(F)F)cc(C(F)(F)F)c1` , is normalized growth under 1?
Condition met

Bench note: check whether `Cc1ccc(-c2nc(NS(=O)(=O)c3cccc4nonc34)sc2C)cc1Cl` shows normalized growth below 1
Condition not met

Say whether its normalized growth is strictly beneath 1. Entry: `COc1ccc(Nc2nc(NC(=O)Nc3ccc(Cl)cc3)n[nH]2)cc1`
Condition met

* * *

- Experiment description: chemical genetic growth profiling, strain panel (AID 1159580);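 further: tested at 20 µM; growth read once vehicle control cultures reached saturation at 30 °C; 1 = growth at the plate median or of vehicle wells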
- Run conditions: S. cerevisiae deletion strains, growth OD, locus YDR335W, strain msn5
Out of some 5,500 compounds screened, about 2,000 (36%) were called active. Not shown: some 18% with an inconclusive outcome. Cut-off read from the data, not from the text of the source: active = normalized growth mostly below about 0.91 (no sharp cut-off); inconclusive = no clear call, values can overlap the other calls; inactive = mostly above about 0.92. Some of the results follow.
Outcomes you can answer with include only these: active, inactive

Below are worked cases with known answers.
So what was the verdict on `Cc1ccc(C(=O)c2ccc(CC(=O)O)n2C)cc1` in this test?
inactive

Which outcome was entered for the compound C=C[C@@]1(C)CC(=O)[C@@]2(O)[C@](C)(O1)[C@@H](OC(C)=O)[C@@H](O)C1C(C)(C)CC[C@H](O)[C@@]12C (some centres undefined) in this test?
inactive

Look up the recorded call for COc1ccc2c(c1)OCC(Cc1ccc(OC)c(OC(C)=O)c1)C2=O (centres undefined) in this test.
inactive

Hi, do you know how COc1ccc2c(c1)OCC(Cc1ccc(O)c(OC)c1)C2=O (centres undefined) came out in this test?
inactive

Give the logged outcome of this assay for the following compound: CC1(C)N([O-])[N+](=O)C1(C)Br (centres undefined)
inactive

Dear colleague, could you share the recorded outcome for CC1(C)C(=O)[C@@H]2O[C@@H]2[C@@]2(C)C1C[C@@H](O)[C@]1(C)C2CC[C@@]2(C)[C@H](c3ccoc3)OC(=O)C3OC321 (some centres undefined) when you have a moment?
inactive

What call does the record list for NC(=O)CS(=O)C(c1ccccc1)c1ccccc1 (centres undefined) ?
inactive

How did this test come out for Clc1ccc(COC(Cn2ccnc2)c2ccc(Cl)cc2Cl)cc1 (centres undefined) ?
active

Please indicate how the test categorized `Clc1ccc(CO/N=C(/Cn2ccnc2)c2ccc(Cl)cc2Cl)c(Cl)c1` .
active

What was the test verdict on COc1ccnc(CS(=O)c2nc3ccc(OC(F)F)cc3[nH]2)c1OC (centres undefined) ?
inactive

Next:
Please indicate how the test categorized CC(=O)O[C@@H]1CC2C(C)(C)[C@@H](O)CC[C@]2(C)C2CC[C@@]3(C)[C@H](c4ccoc4)OC(=O)[C@H]4O[C@]43[C@@]21C (some centres undefined) .
inactive
